molecular target: F protein of human metapneumovirus strain JPS02-76 (type B1), on infectious virus (human metapneumovirus, strain JPS02-76 …, UniProt Q6WB98 19-539); assay: cell-based or functional assay
Could you label it 1.0 if measured IC60, neutralizing activity (hMPV infection of LLC-MK2 cells; GraphPad Prism 6) is 0.4 µg/mL or higher, and 0.0 otherwise?

binder	category
EV046135 (antibody, human IgG1, lambda, V domains shown) VH: QEQLVESGGDLVKPGGSLRITCAASGFTLSGYALVWVRQAPGRGLEWIADITASSTYINYAASVKGRFTISRDNAQSSLFLQMSSLRADDTGVYFCARLPHLPGFFDLWGRGTLVSVSS VL: QSVLTQPPSVSGAPGQRVTISCTGNSSNIGAGYDVNWYQHLPGTAPKLLISVNTNRPSGVPDRFSGSMSGTSASLAITGLQAEDEADYYCQSYDRRLSGYVFGTGTKVTVLG	1.0
EV046130 (antibody, human IgG1, lambda, V domains shown) VH: QVQLVESGGGVAQPGRSLRLSCAASGFTLSNYGMHWVRQAPGKGLEWVAVIWYDGRNKYYADSVKGRFTISRDDFKNTLDLQMNSLRAEDTAVYYCARDQHAGITMIEDWGQGTLVTVSS VL: QSALTQPPSASGSPGQSVTISCTGTSSDVGYFKYVSWYQQHPGKAPKLLIYEVSKRPSGVPDRFSGSRSGNTASLTVSGLQADDEADYYCGSYAGNNNIIFGGGTKLTVLG	0.0
EV046124 (antibody, human IgG1, lambda, V domains shown) VH: QVQLVQSGTELKKPGASVKVSCKASGYTFTDYSMHWLRQAPGESLEWMGWVNGGPLDTKYSPTFQDRVSFSRDVFATTAYMDLSSLGPEDTAVYYCARGWGITAYRGDAFDLWGQGTMVIVSS VL: SFVLTQPPSVSVAPGKSARITCGASNIESKSVHWYQQKPGQAPVVVVYDDDDRPSGIPERFSGSNSGNTATLIINRVEVGDEADYYCQVWDSTSDMYVFGAGTKVTVLG	1.0
EV046142 (antibody, human IgG1, lambda, V domains shown) VH: QVQLVQSGAEVKKPGSSVRVSCKASGGTFSTYGINWVRQARGQGLEWMGTVIPTFEKTYYAQGFQGRVTIAADGSKNTVYMELRRLTSEDSAIYFCTRFFTPYCSGGSCYLDLWGPGTLVTVSS VL: QSVLTQPPSVSGAPGQSVTISCAGSSSNIGAGYDVHWYQHLPGTAPRLLIYSNTNRPSGVPDRFSGSKSGASASLAITGLQAEDEADYYCQSYDSGVVFGGGTKLTVLR	1.0
EV046113 (antibody, human IgG1, kappa, V domains shown) VH: QVQLVESGGGLVRPGGSLRLSCAASGFTFSDYFMTWIRQAPGKGLEWVSYINSIGSVIFYADSVEGRFTVSRDNTMKSLFLQMNSLTAEDTAVYYCARSCRISYGASGGFSCGMDVWGQGTPVTVSS VL: DIQMTQSPSSLSASVGDRVTITCQASQSIRENINWYQQKTGKAPKLLIYDASILETGVPSRFSGSGSGTHFTFTISSLQPEDMATYYCQQYHHLITFGQGTRLDIKR	1.0
